Just for reference, paper PMC5201116 is where these values come from.

Tested on: Neh2-luc reporter (SH-SY5Y cell line)
Assay: Neh2-luc reporter assay
Assay type: cell-based
Settings: at 10 µM, 3 h incubation
Experimental: SH-SY5Y cell lines stably expressing HIF1 ODD-luc or Neh2-luc reporters were grown in the DMEM/F12 supplemented with GlutaMAX (Thermo Fisher Scientific) containing 10% FBS, 100 U/ml penicillin, and 100 μg/ml streptomycin and plated into 384-well white flat-bottom plates at 7,000 cell/well in 30 µl serum and incubated overnight at 37°C, 5% CO2. […] Luciferase reporter activity was measured with a SteadyGlo reagent from Promega providing stable reading for 1 h. […]
assay-readout: Neh2-luc fold activation

molecule | assay-readout | experimental-value
COc1cc(C)c2c(=O)cc(-c3ccccc3)oc2c1 | Neh2-luc fold activation | Inactive
O=C(O)CN(CC(=O)O)Cc1cc2c(cc1O)Oc1cc(O)c(CN(CC(=O)O)CC(=O)O)cc1C21OC(=O)c2ccccc21 [compound 34, Calcein, reference compound] | Neh2-luc fold activation | Inactive
O=c1cc(-c2ccc(O)cc2)oc2cc(O)cc(O)c12 | Neh2-luc fold activation | Inactive
O=c1c(-c2ccc(O)cc2)coc2cc(O)cc(O)c12 | Neh2-luc fold activation | Inactive

----------
List of concentration at which neuroprotection begins values.
System: primary neuronal cultures treated with 5 mM HCA
Assay: Glutathione depletion (HCA) model, MTT viability
Format: cell-based, rat
Settings: glutathione depletion model, Fig. 5
Protocol: Primary neuronal cultures were prepared from the forebrains of Sprague-Dawley rat embryos (E17) and plated on 96 well plates at a 10^6 cells/ml density. After 24 hours, cells were rinsed with warm PBS and then placed in minimum Essential Medium (MEM; Life Technologies, Grand Island, NY) containing 5 mM HCA in the presence of a compound of interest at varied concentrations. […] Viability was assessed by the MTT (4,5-dimethylthiazol-2-yl)-2,5-diphenyltetrazolium bromide) assay.
assay-readout: concentration at which neuroprotection begins

molecule | experimental-value
O=c1c(-c2ccc(O)c(O)c2)coc2cc(O)ccc12 [compound 27, 3’-Hydroxy-daidzein] | 2.5 µM
CC(Cc1ccc(O)c(O)c1)C(C)Cc1ccc(O)c(O)c1 (stereo not shown) | 2.5 µM
O=c1c(O)c(-c2ccc(O)c(O)c2)oc2cc(O)ccc12 | 2.5 µM
O=c1cc(-c2ccc(O)c(O)c2)oc2cc(O)cc(O)c12 | 1.2 µM

----------
Assay: Non-enzymatic ferricyanide reduction rate constant
Type: physicochemical
Settings: 1 mM ferricyanide, pH 7.0

structure-notation | FC red Rate Const, mM⁻¹ s⁻¹
O=c1c(O)c(-c2ccc(O)cc2)oc2cc(O)cc(O)c12 | 369
O=c1cc(-c2ccc(O)c(O)c2)oc2cc(O)cc(O)c12 | 130
O=c1c(O)c(-c2ccc(O)c(O)c2)oc2cc(O)cc(O)c12 | 366

----------
Tested on: Neh2-luc reporter (SH-SY5Y cell line)
Assay: Neh2-luc reporter assay
Format: cell-based
Details: at 10 µM, 3 h incubation

molecule | Neh2-luc fold activation
O=c1c(-c2ccc(O)cc2)coc2cc(O)ccc12 [compound 26, Daidzein] | Inactive
O=c1c(O)c(-c2ccccc2)oc2cccc(O)c12 [compound 7, 3,5-Dihydroxy-] | Inactive
O=c1c(-c2ccc(O)c(O)c2)coc2cc(O)ccc12 [compound 27, 3’-Hydroxy-daidzein] | 15±2 fold

----------
Assay: Iron binding constant, calcein displacement assay
Type: physicochemical
Conditions: calcein displacement

molecule | Iron complex Diss. Const
N[C@@H](Cc1ccc(O)c(O)c1)C(=O)O [compound 29, 3,4-Dihydroxy-L-phenylalanine, reference compound] | 2.5 ± 0.3 µM
C[C@@](Cc1ccc(O)c(O)c1)(NN)C(=O)O [compound 31, N-Aminomethyldopa, reference compound] | 2.5 ± 0.3 µM
O=c1c(O)c(-c2ccc(O)cc2)oc2cc(O)cc(O)c12 [compound 9, Kaempferol] | 2.5 ± 0.3 µM
COc1ccc(-c2oc3ccccc3c(=O)c2O)cc1 [compound 4, 3-Hydroxy-4'-methoxy-] | 4.0 ± 0.4 µM
O=c1c(O)c(-c2ccc(O)c(O)c2)oc2cc(O)ccc12 [compound 10, Fisetin] | 2.7 ± 0.3 µM
O=c1c(O)c(-c2cc(O)c(O)c(O)c2)oc2cc(O)cc(O)c12 [compound 13, Myricetin] | 2.0 ± 0.2 µM
O=c1c(-c2ccc(O)cc2)coc2cc(O)cc(O)c12 [compound 23, Genistein] | Inactive
O=c1cc(-c2ccccc2)oc2cc(O)cc(O)c12 [compound 15, Chrysin] | Inactive
O=c1c(O)c(-c2ccccc2)oc2cccc(O)c12 [compound 7, 3,5-Dihydroxy-] | 2.5 ± 0.3 µM
O=c1c(-c2ccc(O)c(O)c2)coc2cc(O)ccc12 [compound 27, 3’-Hydroxy-daidzein] | 3.5 ± 0.4 µM
CC(Cc1ccc(O)c(O)c1)C(C)Cc1ccc(O)c(O)c1 (stereo not drawn) [compound 28] | 2.5 ± 0.3 µM
CC(C)Oc1ccc2c(=O)c(-c3ccccc3)coc2c1 [compound 22, Ipriflavone] | Inactive
O=c1cc(-c2ccc(O)c(O)c2)oc2cc(O)cc(O)c12 [compound 18, Luteolin] | 3.5 ± 0.4 µM
O=C(O)CN(CC(=O)O)Cc1cc2c(cc1O)Oc1cc(O)c(CN(CC(=O)O)CC(=O)O)cc1C21OC(=O)c2ccccc21 [compound 34, Calcein, reference compound] | 0.05 ± 0.01 µM
O=c1c(O)c(-c2ccc(O)c(O)c2)oc2cc(O)cc(O)c12 [compound 11, Quercetin] | 2.7 ± 0.3 µM

----------
Assay: Iron binding constant, calcein displacement assay
Assay type: physicochemical
Details: calcein displacement

molecule | Iron complex Diss. Const
O=c1cc(-c2ccc(O)cc2)oc2cc(O)cc(O)c12 | Inactive
COc1cc(C)c2c(=O)cc(-c3ccccc3)oc2c1 | Inactive
O=c1c(O)c(-c2ccccc2)oc2ccccc12 [compound 1, 3-Hydroxyflavone] | 2.0 ± 0.2 µM
O=c1cc(-c2ccccc2)oc2cccc(O)c12 [compound 14, 5-hydroxyflavone] | Inactive
O=c1c(-c2ccc(O)cc2)coc2cc(O)ccc12 | Inactive
